- Tested on: Escherichia coli TOP10;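 further: peptides expressed intracellularly from a pBAD plasmid library in pooled LB shake-flask culture, induced with 0.3% L-arabinose, DNA abundance read by NGS, three biological replicates, DESeq2 with apeglm shrinkage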
- Method Summary: shrunken log2 fold change of peptide-encoding DNA abundance (4.5 h post-induction vs induction); higher = less antimicrobial activity (less host growth inhibition)
- Condition Summary: time post-induction: 4.5 h; library: site-saturation at positions 5, 18, 19, 20
Would you mind telling me the reported shrunken log2 fold change of each entry?

Q: Requested read-out: shrunken log2 fold change. Entry: RRIRNRPPRLPRPRPRPVLAPRP
A: 0.093

Q: Look up shrunken log2 fold change: RRIRKRPPRLPRPRPRPTAVPRP
A: 0.284

Q: What does the data say about its shrunken log2 fold change? Entry: RRIRDRPPRLPRPRPRPMYQPRP
A: -0.075

Q: Which measured shrunken log2 fold change value corresponds to RRIRQRPPRLPRPRPRPTLHPRP ?
A: 0.0326

Q: Requested read-out: shrunken log2 fold change. Entry: RRIRLRPPRLPRPRPRPRCDPRP
A: -0.0342

Q: Consider the sequence RRIRTRPPRLPRPRPRPNVKPRP and give its measured shrunken log2 fold change.
A: -0.137

Q: Tell me the measured shrunken log2 fold change of RRIRKRPPRLPRPRPRPYEMPRP , please.
A: 0.138

Q: Requested read-out: shrunken log2 fold change. Entry: RRIRNRPPRLPRPRPRPNGSPRP
A: -0.0999

Q: Recorded shrunken log2 fold change for RRIRWRPPRLPRPRPRPFRKPRP , please?
A: -0.351

Q: Item under review: RRIRKRPPRLPRPRPRPGRGPRP . Reported shrunken log2 fold change?
A: 0.593

Q: Need shrunken log2 fold change of RRIRCRPPRLPRPRPRPWLPPRP , thanks.
A: -0.122

Q: May I ask what shrunken log2 fold change has been recorded for RRIRRRPPRLPRPRPRPWWGPRP ?
A: 0.288

Q: Consider the sequence RRIRWRPPRLPRPRPRPWCAPRP and give its measured shrunken log2 fold change.
A: 0.0379

Q: So what's the measured shrunken log2 fold change for this one? RRIRQRPPRLPRPRPRPDLIPRP
A: 0.0281

Q: What value of shrunken log2 fold change has been recorded for this entry: RRIRQRPPRLPRPRPRPNTCPRP
A: -1.35

Q: Which measured shrunken log2 fold change value corresponds to RRIRFRPPRLPRPRPRPCWGPRP ?
A: 0.00445

Q: Query: shrunken log2 fold change; subject: RRIRKRPPRLPRPRPRPIKGPRP
A: -0.141

Q: Look at this sequence and give its reported shrunken log2 fold change. RRIRERPPRLPRPRPRPTRIPRP
A: 0.17

Q: # query: shrunken log2 fold change of entry RRIRTRPPRLPRPRPRPCHHPRP
A: -0.0688

Q: Consider the sequence RRIRGRPPRLPRPRPRPNCSPRP and give its measured shrunken log2 fold change.
A: 0.99

Q: For the sequence shown here, RRIRLRPPRLPRPRPRPIWLPRP , give the reported shrunken log2 fold change.
A: 0.132

Q: Consider the sequence shown here: RRIRGRPPRLPRPRPRPPQYPRP What is its recorded shrunken log2 fold change?
A: 0.38

Q: I have this sequence here, RRIRKRPPRLPRPRPRPRSHPRP , and I need its recorded shrunken log2 fold change.
A: 0.38

Q: Entry RRIRARPPRLPRPRPRPLSFPRP : reported shrunken log2 fold change = ?
A: 0.0158

Q: So what's the measured shrunken log2 fold change for this one? RRIRDRPPRLPRPRPRPVHEPRP
A: -0.0506

Q: Please look up its shrunken log2 fold change: RRIRARPPRLPRPRPRPCNVPRP
A: -0.0688

Q: Can you share its shrunken log2 fold change? I mean this sequence: RRIRERPPRLPRPRPRPTWMPRP
A: 0.0534

Q: Request the reported shrunken log2 fold change associated with RRIRVRPPRLPRPRPRPGAGPRP
A: 0.284

Q: For the sequence RRIRTRPPRLPRPRPRPHEIPRP , what shrunken log2 fold change is on record?
A: 0.00283

Q: Fill in the blank: the reported shrunken log2 fold change of RRIRMRPPRLPRPRPRPYPQPRP is ____.
A: 0.0818

Q: Look at this sequence and give its reported shrunken log2 fold change. RRIRRRPPRLPRPRPRPHDYPRP
A: -0.0628

Q: Entry RRIRFRPPRLPRPRPRPPISPRP has what shrunken log2 fold change?
A: -0.239

// data source = the supplement of paper PMC9112550
